# credit: PubChem BioAssay AID2060343

System: 138582-337-R-J1-PDC spheroids with HUVEC/MSC, viability
Test: Anticancer human tumor 138582-337-R-J1-PDC patient-derived Merkel cell tumor cell line growth inhibition [IpAb]
Details: second compound 3.16 µM; first compound 3.16 µM; stronger effect = lower value
Please provide measured viability, T/C for the entries that follow.
Give just the numeric value; % need not be written.

Q: Lab request: please report viability, T/C under test system 138582-337-R-J1-PDC spheroids with HUVEC/MSC, viability for C=CC(=O)N1CCN(c2nc(=O)n(-c3c(C)ccnc3C(C)C)c3nc(-c4c(O)cccc4F)c(F)cc23)C(C)C1 (stereo not drawn) + CC(C)NCC(C(=O)N1CCN(c2ncnc3c2C(C)CC3O)CC1)c1ccc(Cl)cc1
A: 69

Q: Query the reported viability, T/C for 138582-337-R-J1-PDC spheroids with HUVEC/MSC, viability; item: CC1(C)CCC(CN2CCN(c3ccc(C(=O)NS(=O)(=O)c4ccc(NCC5CCOCC5)c([N+](=O)[O-])c4)c(Oc4cnc5[nH]ccc5c4)c3)CC2)=C(c2ccc(Cl)cc2)C1 + CC(C)NCC(C(=O)N1CCN(c2ncnc3c2C(C)CC3O)CC1)c1ccc(Cl)cc1
A: 49.6

Q: Form field - read-out: viability, T/C; system: 138582-337-R-J1-PDC spheroids with HUVEC/MSC, viability; submitted item: Cn1nccc1Nc1nccc(-c2ccn(C(CO)c3ccc(Cl)c(F)c3)c(=O)c2)n1 (stereo not drawn) + CC(C)NCC(C(=O)N1CCN(c2ncnc3c2C(C)CC3O)CC1)c1ccc(Cl)cc1
A: 19.9

====

Test system: 138582-337-R-J1-PDC spheroids with HUVEC/MSC, viability
Experiment: Anticancer human tumor 138582-337-R-J1-PDC cell line growth inhibition [IpAb]; active = viability on the fitted dose curve at most 10% of control; inactive = the rest;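 also: spheroids exposed to compounds for seven days; 100% = DMSO vehicle control viability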
Details: second compound 0.1 µM; first compound 1 µM
// one of 1.0 = active, 0.0 = inactive, no free text

Q: Name the outcome recorded for Cn1ncc(Cl)c1-c1cc(C(=O)NC(CN)Cc2cccc(F)c2)sc1Cl (stereo not given) + CCN1CCN(Cc2ccc(Nc3ncc(F)c(-c4cc(F)c5nc(C)n(C(C)C)c5c4)n3)nc2)CC1 in the assay.
A: 0.0

Q: What outcome does the record of this test show for COc1c(OCCCN2CCOCC2)ccc2c3n(c(=NC(=O)c4cnc(N)nc4)nc12)CCN3 + CC(C)NCC(C(=O)N1CCN(c2ncnc3c2C(C)CC3O)CC1)c1ccc(Cl)cc1 ?
A: 1.0

Q: Record request — test call for Cn1nccc1Nc1nccc(-c2ccn(C(CO)c3ccc(Cl)c(F)c3)c(=O)c2)n1 (stereo not given) + CCN1CCN(Cc2ccc(Nc3ncc(F)c(-c4cc(F)c5nc(C)n(C(C)C)c5c4)n3)nc2)CC1
A: 0.0

Q: Write down the call the test reported for this compound. Item: CC1(C)CCC(CN2CCN(c3ccc(C(=O)NS(=O)(=O)c4ccc(NCC5CCOCC5)c([N+](=O)[O-])c4)c(Oc4cnc5[nH]ccc5c4)c3)CC2)=C(c2ccc(Cl)cc2)C1 + CC(C)NCC(C(=O)N1CCN(c2ncnc3c2C(C)CC3O)CC1)c1ccc(Cl)cc1
A: 0.0

Q: Dear all, I need the recorded test outcome for COc1c(OCCCN2CCOCC2)ccc2c3n(c(=NC(=O)c4cnc(N)nc4)nc12)CCN3 + CCN1CCN(Cc2ccc(Nc3ncc(F)c(-c4cc(F)c5nc(C)n(C(C)C)c5c4)n3)nc2)CC1 , thank you.
A: 1.0

Q: Test call, this compound: C=CCn1c(=O)c2cnc(Nc3ccc(N4CCN(C)CC4)cc3)nc2n1-c1cccc(C(C)(C)O)n1 + CC(C)NCC(C(=O)N1CCN(c2ncnc3c2C(C)CC3O)CC1)c1ccc(Cl)cc1
A: 0.0

Q: For C=CC(=O)N1CCN(c2nc(=O)n(-c3c(C)ccnc3C(C)C)c3nc(-c4c(O)cccc4F)c(F)cc23)C(C)C1 (stereo not given) + CCN1CCN(Cc2ccc(Nc3ncc(F)c(-c4cc(F)c5nc(C)n(C(C)C)c5c4)n3)nc2)CC1 , which call appears in the assay record?
A: 0.0

Q: Lab log entry: CCCS(=O)(=O)Nc1ccc(F)c(C(=O)c2c[nH]c3ncc(-c4ccc(Cl)cc4)cc23)c1F + CC(C)NCC(C(=O)N1CCN(c2ncnc3c2C(C)CC3O)CC1)c1ccc(Cl)cc1 — outcome as called in the assay?
A: 0.0

Q: Called result for CCCS(=O)(=O)Nc1ccc(F)c(C(=O)c2c[nH]c3ncc(-c4ccc(Cl)cc4)cc23)c1F + CCN1CCN(Cc2ccc(Nc3ncc(F)c(-c4cc(F)c5nc(C)n(C(C)C)c5c4)n3)nc2)CC1
A: 0.0

Q: How did this test come out for Cn1nccc1Nc1nccc(-c2ccn(C(CO)c3ccc(Cl)c(F)c3)c(=O)c2)n1 (stereo not given) + CC(C)NCC(C(=O)N1CCN(c2ncnc3c2C(C)CC3O)CC1)c1ccc(Cl)cc1 ?
A: 0.0

====

System: 138582-337-R-J1-PDC spheroids with HUVEC/MSC, viability
Assay: Anticancer human tumor 138582-337-R-J1-PDC cell line growth inhibition [IpAb];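 also: spheroids exposed to compounds for seven days; 100% = DMSO vehicle control viability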
Settings: second compound 0.316 µM; first compound 3.16 µM; stronger effect = lower value
Experimental: Combinatorial screen of targeted agents with ipatasertib and abemaciclib in multi-cell type tumor spheroids […] Compounds. […] If the clinical Cmax for an agent had not been determined, the highest concentration tested was 10 microM. NCI60 Cell Culture. […] The optimal seeding densities for each of the cell lines at each time point assessed were determined prior to performing the concentration response studies. […]
For each record, write down the corresponding viability, T/C.

Q: Which viability, T/C value belongs to C=CCn1c(=O)c2cnc(Nc3ccc(N4CCN(C)CC4)cc3)nc2n1-c1cccc(C(C)(C)O)n1 + CC(C)NCC(C(=O)N1CCN(c2ncnc3c2C(C)CC3O)CC1)c1ccc(Cl)cc1 ?
A: 94.2%

Q: Entry CCCS(=O)(=O)Nc1ccc(F)c(C(=O)c2c[nH]c3ncc(-c4ccc(Cl)cc4)cc23)c1F + CC(C)NCC(C(=O)N1CCN(c2ncnc3c2C(C)CC3O)CC1)c1ccc(Cl)cc1 : reported viability, T/C = ?
A: 71.7%

Q: Looking for the measured viability, T/C of Cn1nccc1Nc1nccc(-c2ccn(C(CO)c3ccc(Cl)c(F)c3)c(=O)c2)n1 (stereo unspecified) + CC(C)NCC(C(=O)N1CCN(c2ncnc3c2C(C)CC3O)CC1)c1ccc(Cl)cc1 , can you help?
A: 75.8%

Q: Any idea what its viability, T/C is? The compound is Cn1nccc1Nc1nccc(-c2ccn(C(CO)c3ccc(Cl)c(F)c3)c(=O)c2)n1 (stereo unspecified) + CCN1CCN(Cc2ccc(Nc3ncc(F)c(-c4cc(F)c5nc(C)n(C(C)C)c5c4)n3)nc2)CC1
A: 124%

Q: // lookup viability, T/C for Cn1ncc(Cl)c1-c1cc(C(=O)NC(CN)Cc2cccc(F)c2)sc1Cl (stereo unspecified) + CC(C)NCC(C(=O)N1CCN(c2ncnc3c2C(C)CC3O)CC1)c1ccc(Cl)cc1
A: 61.5%

Q: Fill in the blank: the reported viability, T/C of C=CC(=O)N1CCN(c2nc(=O)n(-c3c(C)ccnc3C(C)C)c3nc(-c4c(O)cccc4F)c(F)cc23)C(C)C1 (stereo unspecified) + CCN1CCN(Cc2ccc(Nc3ncc(F)c(-c4cc(F)c5nc(C)n(C(C)C)c5c4)n3)nc2)CC1 is ____.
A: 144%

====

Could you please report measured viability, T/C for the items listed next?
Test system: 138582-337-R-J1-PDC spheroids with HUVEC/MSC, viability
Test: Anticancer human tumor 138582-337-R-J1-PDC cell line growth inhibition [IpAb];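 also: spheroids exposed to compounds for seven days; 100% = DMSO vehicle control viability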
Conditions: second compound 0.1 µM; first compound 3.16 µM; stronger effect = lower value
The reply should contain only the number, in %.

Q: So what does the record say about viability, T/C for C=CC(=O)N1CCN(c2nc(=O)n(-c3c(C)ccnc3C(C)C)c3nc(-c4c(O)cccc4F)c(F)cc23)C(C)C1 (centres undefined) + CCN1CCN(Cc2ccc(Nc3ncc(F)c(-c4cc(F)c5nc(C)n(C(C)C)c5c4)n3)nc2)CC1 ?
A: 139

Q: For the compound C=CCn1c(=O)c2cnc(Nc3ccc(N4CCN(C)CC4)cc3)nc2n1-c1cccc(C(C)(C)O)n1 + CCN1CCN(Cc2ccc(Nc3ncc(F)c(-c4cc(F)c5nc(C)n(C(C)C)c5c4)n3)nc2)CC1 , what viability, T/C is on record?
A: 116

Q: Fill in: viability, T/C of C=CCn1c(=O)c2cnc(Nc3ccc(N4CCN(C)CC4)cc3)nc2n1-c1cccc(C(C)(C)O)n1 + CC(C)NCC(C(=O)N1CCN(c2ncnc3c2C(C)CC3O)CC1)c1ccc(Cl)cc1 is ___
A: 99.1

Q: Field request: viability, T/C | item: CCCS(=O)(=O)Nc1ccc(F)c(C(=O)c2c[nH]c3ncc(-c4ccc(Cl)cc4)cc23)c1F + CCN1CCN(Cc2ccc(Nc3ncc(F)c(-c4cc(F)c5nc(C)n(C(C)C)c5c4)n3)nc2)CC1
A: 93.7
